# Assay method text: Solubility of the compound in water based media
# Format: physicochemical
# Condition summary: buffer

{"Smiles repr": "CC(C)[C@@H]1CC[C@]2(C(=O)O)CC[C@]3(C)[C@H](CC[C@@H]4[C@@]5(C)Cc6sc(N)nc6C(C)(C)[C@@H]5CC[C@]43C)[C@@H]12", "solubility": "Insoluble"}
{"Smiles repr": "CC1(C)CC[C@]23CC[C@]4(C)[C@H](CC[C@@H]5[C@@]6(C)Cc7conc7C(C)(C)[C@@H]6CC[C@]54C)[C@H]2[C@H]1OC3", "solubility": "Insoluble"}
{"Smiles repr": "CC1(C)CC[C@]23CC[C@]4(C)[C@H](CC[C@@H]5[C@@]6(C)Cc7c[nH]nc7C(C)(C)[C@@H]6CC[C@]54C)[C@H]2[C@H]1OC3", "solubility": "Insoluble"}

* * *

Each entry below carries its recorded pIC50.
# Test system: MRC5
# Assay method text: Cytotoxicity against human MRC5 cells after 72 hrs by MTT assay
# Type: cell-based
# Condition summary: MRC5, 72 h
pIC50: −log10 of the molar value.

{"Compound": "C=C(C)[C@@H]1CC[C@]2(C(=O)O)CC[C@]3(C)[C@H](CC[C@@H]4[C@@]5(C)C/C(=C/O)C(=O)C(C)(C)[C@@H]5CC[C@]43C)[C@@H]12", "pIC50": 4.52}
{"Compound": "CC(C)[C@@H]1CC[C@]2(C(=O)O)CC[C@]3(C)[C@H](CC[C@@H]4[C@@]5(C)Cc6sc(N)nc6C(C)(C)[C@@H]5CC[C@]43C)[C@@H]12", "pIC50": 4.80}
{"Compound": "CC(C)[C@@H]1CC[C@]2(C(=O)O)CC[C@]3(C)[C@H](CC[C@@H]4[C@@]5(C)CCC(=O)C(C)(C)[C@@H]5CC[C@]43C)[C@@H]12 [DIHYDROBETULONIC ACID]", "pIC50": 4.93}
{"Compound": "CC(C)[C@@H]1CC[C@]2(C(=O)O)CC[C@]3(C)[C@H](CC[C@@H]4[C@@]5(C)CC(Br)(Br)C(=O)C(C)(C)[C@@H]5CC[C@]43C)[C@@H]12", "pIC50": 5.10}
{"Compound": "C=C(C)[C@@H]1CC[C@]2(C(=O)O)CC[C@]3(C)[C@H](CC[C@@H]4[C@@]5(C)Cc6c[nH]nc6C(C)(C)[C@@H]5CC[C@]43C)[C@@H]12", "pIC50": 4.85}
{"Compound": "CC(C)[C@@H]1CC[C@]2(C(=O)O)CC[C@]3(C)[C@H](CC[C@@H]4[C@@]5(C)Cc6c[nH]nc6C(C)(C)[C@@H]5CC[C@]43C)[C@@H]12", "pIC50": 4.87}
{"Compound": "CC(C)[C@@H]1CC[C@]2(C(=O)O)CC[C@]3(C)[C@H](CC[C@@H]4[C@@]5(C)CC(Br)C(=O)C(C)(C)[C@@H]5CC[C@]43C)[C@@H]12 (mixture of isomers)", "pIC50": 4.84}

* * *

# System: A549
# Assay method text: Cytotoxicity against human A549 cells after 72 hrs by MTT assay
# Format: functional, cell-based
# Condition summary: A549, 72 h
Each entry below carries its recorded IC50.

{"Compound": "CC(C)[C@@H]1CC[C@]2(C(=O)O)CC[C@]3(C)[C@H](CC[C@@H]4[C@@]5(C)Cc6c[nH]nc6C(C)(C)[C@@H]5CC[C@]43C)[C@@H]12", "IC50, µM": 3.6}
{"Compound": "CC(C)[C@@H]1CC[C@]2(C(=O)O)CC[C@]3(C)[C@H](CC[C@@H]4[C@@]5(C)Cc6sc(N)nc6C(C)(C)[C@@H]5CC[C@]43C)[C@@H]12", "IC50, µM": 7}
{"Compound": "C=C(C)[C@@H]1CC[C@]2(C(=O)O)CC[C@]3(C)[C@H](CC[C@@H]4[C@@]5(C)C/C(=C/O)C(=O)C(C)(C)[C@@H]5CC[C@]43C)[C@@H]12", "IC50, µM": 17.6}
{"Compound": "CC(C)[C@@H]1CC[C@]2(C(=O)O)CC[C@]3(C)[C@H](CC[C@@H]4[C@@]5(C)CC(Br)C(=O)C(C)(C)[C@@H]5CC[C@]43C)[C@@H]12 (mixture of isomers)", "IC50, µM": 11.9}
{"Compound": "C=C(C)[C@@H]1CC[C@]2(C(=O)O)CC[C@]3(C)[C@H](CC[C@@H]4[C@@]5(C)Cc6c[nH]nc6C(C)(C)[C@@H]5CC[C@]43C)[C@@H]12", "IC50, µM": 5.2}
{"Compound": "CC(C)[C@@H]1CC[C@]2(C(=O)O)CC[C@]3(C)[C@H](CC[C@@H]4[C@@]5(C)CCC(=O)C(C)(C)[C@@H]5CC[C@]43C)[C@@H]12 [DIHYDROBETULONIC ACID]", "IC50, µM": 5.9}
{"Compound": "CC(C)[C@@H]1CC[C@]2(C(=O)O)CC[C@]3(C)[C@H](CC[C@@H]4[C@@]5(C)CC(Br)(Br)C(=O)C(C)(C)[C@@H]5CC[C@]43C)[C@@H]12", "IC50, µM": 8.4}

Where do the numbers come from? From ChEMBL document CHEMBL2034860.
